Experiment: chemical genetic growth profiling, strain panel (AID 1159580);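 also: tested at 20 µM; growth read once vehicle control cultures reached saturation at 30 °C; 1 = growth at the plate median or of vehicle wells; lower values mean less growth of the strain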
Settings: S. cerevisiae deletion strains, growth OD, locus YJL095W, strain BCK1
Out of some 5,500 compounds screened, about 2,000 (36%) were called active. Roughly 18% stayed inconclusive and do not appear here. Rule as the data show it: active = normalized growth mostly below about 0.91 (no sharp cut-off); inconclusive = no clear call, values can overlap the other calls; inactive = mostly above about 0.92. Some of the results follow.
Labels: yes (1) = active, no (0) = inactive

- molecule: "CNCC[C@@H](Oc1ccccc1)c1ccccc1"
  class_assignment: "no (0)"
- molecule: "S=C(Nc1ccc(Cl)cc1)Nc1ccc(Cl)cc1"
  class_assignment: "no (0)"
- molecule: "COc1cc(/C=C/C=O)cc(OC)c1OC"
  class_assignment: "no (0)"
- molecule: "COc1cc(OC)cc(N2C(=O)C=CC2=O)c1"
  class_assignment: "yes (1)"
- molecule: "Clc1ccc(N/N=C\\c2sccc2Oc2ccccc2)cc1"
  class_assignment: "yes (1)"
- molecule: "COc1cc(N2C(=O)C=CC2=O)cc(OC)c1OC"
  class_assignment: "yes (1)"
- molecule: "Cc1ccc2nc(-c3ccc([N+](=O)[O-])o3)oc(=O)c2c1"
  class_assignment: "yes (1)"
- molecule: "CC1=CC(=O)C2=C(C)CC(O)C3C(C)C(=O)OC3C12 (stereo not drawn)"
  class_assignment: "no (0)"
- molecule: "O=C(O)c1cc([N+](=O)[O-])ccc1NCCCc1ccccc1"
  class_assignment: "no (0)"
- molecule: "CC(C)(C)c1ccc(C(=O)NNC(=S)Nc2ccc(Cl)cc2)cc1"
  class_assignment: "no (0)"
- molecule: "CNS(=O)(=O)Cc1ccc2[nH]cc(CCN(C)C)c2c1"
  class_assignment: "no (0)"
- molecule: "CC(=O)O[C@H]1CC[C@]2(C)C3CC[C@@]4(C)C(CC5O[C@@]6(CCC(C)CO6)[C@@H](C)C54)C3CC[C@H]2C1 (stereo partly drawn)"
  class_assignment: "no (0)"
- molecule: "Cc1ccc(OCc2n[nH]c(=S)n2Cc2ccccc2)c2c1CCC2"
  class_assignment: "no (0)"
- molecule: "CC1(C)S[C@@H]2[C@H](NC(=O)[C@H](C(=O)O)c3cccs3)C(=O)N2[C@H]1C(=O)O"
  class_assignment: "no (0)"
- molecule: "CC(N)C(O)c1ccc(O)c(O)c1 (stereo not drawn)"
  class_assignment: "no (0)"
- molecule: "CC(C)(C)C(=O)c1sc2sc(C(=O)C(C)(C)C)c(N)c2c1N"
  class_assignment: "no (0)"
- molecule: "COc1ccc(-c2oc3ccccc3c(=O)c2O)cc1OC"
  class_assignment: "no (0)"
- molecule: "COc1cc(/C=C/C(=O)N2CCC=CC2=O)cc(OC)c1OC"
  class_assignment: "no (0)"
- molecule: "CC(=O)Oc1cc2c(c(C)c1OC(C)=O)CC1OC13C2(C)CCC1(C)C2CC(C)(C(=O)O)CCC2(C)CCC13C (stereo not drawn)"
  class_assignment: "no (0)"
- molecule: "CC(=O)Oc1ccccc1C(=O)O"
  class_assignment: "no (0)"
- molecule: "N#C/C(=N/Nc1cccc(C(F)(F)F)c1)C(=O)c1csc(-c2cccnc2)n1"
  class_assignment: "yes (1)"
- molecule: "COC(=O)[C@]1(C)CC[C@]2(C)CC[C@]3(C)C4=CC=C5C(=CC(=O)C(O)=C5C)[C@]4(C)CC[C@@]3(C)[C@@H]2C1"
  class_assignment: "yes (1)"
- molecule: "FC(F)(F)c1cc(-c2ccc(Cl)cc2)n[nH]1"
  class_assignment: "no (0)"
